B1: JUNB (parent)
chain: FVKALDDLHKMNHVTPPNVSLGAT

Variants of: B1
Test: protein stability index of a GFP-peptide fusion (GPS, HEK-293T) (PSI 1-6); higher = more stable;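 also: lentivirally expressed fusions sorted by FACS into six bins by GFP to DsRed ratio, PSI derived from sequencing read proportions per bin multiplied by bin number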
Conditions: c terminus: a fixed tail appended
measure_name: protein stability index

Please look at this variant and report its protein stability index: "P16K"
1.79

Please look at this variant and report its protein stability index: "G22K"
1.46

Please look at this variant and report its protein stability index: "V19H"
2.41

Please look at this variant and report its protein stability index: "H9Q"
1.34

Please look at this variant and report its protein stability index: "T15R"
2.24

Please look at this variant and report its protein stability index: "A4S"
2.03

Please look at this variant and report its protein stability index: "N12D"
1.61

Please look at this variant and report its protein stability index: "A4L"
2.69

Please look at this variant and report its protein stability index: "P17N"
1.8

Please look at this variant and report its protein stability index: "T15C"
2.06

Please look at this variant and report its protein stability index: "A4W"
3.85

Please look at this variant and report its protein stability index: "H9D"
2.05

Please look at this variant and report its protein stability index: "V14Y"
1.19

Please look at this variant and report its protein stability index: "P16C"
2.48

Please look at this variant and report its protein stability index: "A23V"
2

Please look at this variant and report its protein stability index: "P16S"
1.78

Please look at this variant and report its protein stability index: "A23D"
2.11

Please look at this variant and report its protein stability index: "G22Q"
2.66

Please look at this variant and report its protein stability index: "F1M"
3.6

Please look at this variant and report its protein stability index: "S20R"
2.33

Please look at this variant and report its protein stability index: "T15N"
1.84

Please look at this variant and report its protein stability index: "M11P"
1.4

Please look at this variant and report its protein stability index: "T15P"
2.18

Please look at this variant and report its protein stability index: "K10Y"
2.63

Please look at this variant and report its protein stability index: "H9C"
2.04

Please look at this variant and report its protein stability index: "G22Y"
1.24

Please look at this variant and report its protein stability index: "D7A"
1.69

Please look at this variant and report its protein stability index: "K3Y"
1.73

Please look at this variant and report its protein stability index: "P17L"
1.37

Please look at this variant and report its protein stability index: "H9F"
3.03

Please look at this variant and report its protein stability index: "A23E"
2.17

Please look at this variant and report its protein stability index: "A4E"
2.13

Please look at this variant and report its protein stability index: "G22S"
2.16

Please look at this variant and report its protein stability index: "H13F"
2.17

Please look at this variant and report its protein stability index: "G22F"
2.48

Please look at this variant and report its protein stability index: "V19R"
1.9

Please look at this variant and report its protein stability index: "T24V"
2.46

Please look at this variant and report its protein stability index: "N18D"
1.73

Please look at this variant and report its protein stability index: "K10W"
4.58

Please look at this variant and report its protein stability index: "H9G"
1.97

Please look at this variant and report its protein stability index: "F1E"
4.27
